Exercise: state measured Enzyme degradation CDK9 (% remaining) @ 0.1 μM for each of the compounds provided.
subject of test: CDK9 (Homo sapiens, UniProt P50750)
Construct: endogenous in cells; host or cells: MDA-MB-231
Sequence (P50750 whole entry): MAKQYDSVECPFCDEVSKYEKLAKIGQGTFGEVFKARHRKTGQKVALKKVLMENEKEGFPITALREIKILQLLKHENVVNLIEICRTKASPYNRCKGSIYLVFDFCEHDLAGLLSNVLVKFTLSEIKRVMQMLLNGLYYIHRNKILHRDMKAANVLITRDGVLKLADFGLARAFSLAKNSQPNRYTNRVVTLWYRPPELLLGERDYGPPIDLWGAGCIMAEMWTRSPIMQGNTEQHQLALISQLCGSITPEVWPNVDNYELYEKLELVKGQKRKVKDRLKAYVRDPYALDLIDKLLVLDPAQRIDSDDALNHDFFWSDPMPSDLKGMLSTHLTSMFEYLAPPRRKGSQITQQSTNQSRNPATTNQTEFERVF
assay text: CDK protein degradation activity (Western blotting), CDK9
Format: cell-based
experimental context: MDA-MB-231 cells, 0.1 μM, 16 hours, Western blot

O=C1CC[C@H](N2C(=O)c3ccc(N4CC(C(=O)N5CCC(CN6CCN(c7ccc(Nc8ncnc9c8ncn9C8CC(NC(=O)c9cccc(Cl)n9)C8)cc7)CC6)CC5)C4)cc3C2=O)C(=O)N1 (stereo partly drawn) [Compound 451] | 0/0/0%

Give Enzyme degradation CDK9 (% remaining) @ 0.1 μM for all compounds that follow.
1. O=C1CC[C@H](N2C(=O)c3ccc(N4CC(C(=O)N5CCC(CN6CCN(c7ccc(Nc8ncnc9c8ncn9C8CC(NC(=O)c9cccc(F)n9)C8)cc7)CC6)CC5)C4)cc3C2=O)C(=O)N1 (stereo partly drawn) [Compound 466]
2. Cc1cccc(C(=O)NC2CC(n3cnc4c(Nc5ccc(N6CCN(CC7CCN(C(=O)COc8ccc([C@@H]9CCC(=O)NC9=O)cc8)CC7)CC6)cc5)ncnc43)C2)n1 (stereo partly drawn) [Compound 443]
3. N#Cc1cccc(C(=O)NC2CC(n3cnc4c(Nc5ccc(N6CCN(CC7CCN(C(=O)C8CN(c9ccc%10c(c9)C(=O)N([C@H]9CCC(=O)NC9=O)C%10=O)C8)CC7)CC6)cc5)ncnc43)C2)n1 (stereo partly drawn) [Compound 454]
4. O=C1CC[C@H](n2nnc3ccc(N4CCC(CCN5CCN(c6ccc(Nc7ncnc8c7ncn8C7CC(NC(=O)Cc8ccccc8)C7)cc6)CC5)CC4)cc3c2=O)C(=O)N1 (stereo partly drawn) [Compound 324]
5. O=C1CCC(N2C(=O)c3cccc(NCC(=O)N4CCC(CN5CCC(c6ccc(Nc7ncnc8c7ncn8[C@H]7C[C@@H](NC(=O)Cc8ccccc8)C7)cc6)CC5)CC4)c3C2=O)C(=O)N1 (stereo partly drawn) [Compound 288]
6. O=C1CC[C@H](N2C(=O)c3cc(F)c(N4CCC(CCN5CCN(c6ccc(Nc7ncnc8c7ncn8C7CC(NC(=O)c8c(Cl)cccc8Cl)C7)cc6)CC5)CC4)cc3C2=O)C(=O)N1 (stereo partly drawn) [Compound 406]
7. Cc1cccc(C(=O)N[C@H]2C[C@@H](n3cnc4c(NCc5ccc(OCC6CCN(C(=O)CNc7ccc8c(c7)C(=O)N([C@H]7CCC(=O)NC7=O)C8=O)CC6)cc5)ncnc43)C2)n1 [Compound 108]

A.
0/0/0%
0/0/0%
0/0/0%
0/0/0%
0/0/0%
0/0/0%
0/0/0%

Q. Check the records and state Enzyme degradation CDK9 (% remaining) @ 0.1 μM for Cc1cccc(C(=O)NC2CC(n3cnc4c(Nc5ccc(N6CCN(CC7CCN(c8ccc9nnn([C@H]%10CCC(=O)NC%10=O)c(=O)c9c8)CC7)CC6)cc5C)ncnc43)C2)n1 (stereo partly drawn) [Compound 478]
A. 20/20/20%

====

Give measured Enzyme degradation CDK2 (% remaining) @ 1 μM for each item. Keep answers brief.
subject of test: CDK2 (Homo sapiens)
Construct: endogenous in cells; host or cells: MDA-MB-231
assay text: CDK protein degradation activity (Western blotting), CDK2
Format: cell-based
experimental context: MDA-MB-231 cells, 1 μM, 16 hours, Western blot
Give bare numbers, in %.

Here's what some known entries look like.
Cc1cccc(C(=O)N[C@H]2C[C@@H](n3cnc4c(NCc5ccc(OCCCN6CCN(c7ccc8c(c7)C(=O)N(C7CCC(=O)NC7=O)C8=O)CC6)cc5)ncnc43)C2)n1 (stereo partly shown) [Compound 116] | 40
O=C1CC[C@H](N2C(=O)c3ccc(N4CC(N5CCC6(CC5)CC(N5CCN(c7ccc(Nc8ncnc9c8ncn9C8CC(NC(=O)Cc9ccccc9)C8)cc7)CC5)C6)C4)cc3C2=O)C(=O)N1 (stereo partly shown) [Compound 271] | 40

Then this molecule:
Q. Quickly give me recorded Enzyme degradation CDK2 (% remaining) @ 1 μM for O=C1CC[C@@H](c2ccc(OCC(=O)N3CCC(CC(=O)N4CCN(c5ccc(Nc6ncnc7c6ncn7C6CC(NC(=O)Cc7ccccc7)C6)cc5)CC4)CC3)cc2)C(=O)N1 (stereo partly shown) [Compound 203]
A. 40
